assay: NCI Yeast Anticancer Drug Screen. Data for the bub3 strain (AID 167); conditions: S. cerevisiae bub3 mutant strain, at 5.0 µM (retest, dose inferred, filed as 0.5), hits give high values
About 79,000 compounds went through this panel and 15% of them were active in at least one assay; those are over-represented in the sample as a whole.
Each record here notes measured growth inhibition.
Provide the reading as a plain figure in %.

// below: answered compounds
compound="Cc1cc(Cl)ccc1NC(=O)CC1SC(=NC(=O)c2ccccc2Cl)NC1=O (stereo unspecified)" scale_unit=% observed=98
compound=Nc1ccc(C(=O)/C=C/c2ccccn2)cc1 scale_unit=% observed=-1

Name the recorded growth inhibition for `O=C(Nn1c(=O)c(=O)oc2ccccc21)C(F)(F)F` .
9

---

Assay: NCI Yeast Anticancer Drug Screen. Data for the bub3 strain (AID 167)
Conditions: S. cerevisiae bub3 mutant strain, at 50.0 µM (retest, dose inferred, filed as 5.0)
Experimental: Growth inhibition of yeast strains with defined genetic alterations is measured as a screen for potential anti-cancer activity. Selected strains with alterations in DNA damage repair or cell cycle control were exposed to compounds and growth inhibition was measured relative to vehicle treated controls. The strain used in this assay is bub3
This is part of a sample that, as a whole, favours compounds with a hit. Of some 79,000 tested, about 15% had one in any assay. The source made the active and inactive calls. Rule as the data show it: active = growth inhibition above about 70%; inactive = the rest.
Please answer using one outcome listed in Yes (active), No (inactive)

compound="OC(CBr)c1cc(-c2ccccc2)nc2ccccc12 (configuration not stated)" group_label=Yes

Please let me know the test result on file for O=C1OC(c2ccccc2)(c2ccc(-c3ccc(O)cc3)cc2)c2ccccc21 (configuration not stated) .
Yes

Which outcome was assigned to `COc1ccc(/C=C/C(C(=O)O)C(=O)O)cc1` in this test?
Yes

Entry `O=C(CNc1ccccc1[N+](=O)[O-])Nn1c(-c2ccccc2)nc2ccccc2c1=O` : call = ?
No

Entry COc1ccc(CC2c3cc4c(cc3CCN2C)OCO4)c(C=O)c1OC (configuration not stated) : call = ?
No

Hey, what did the test say about `C=C(CN(C)C)C(=O)c1ccccc1C` ?
Yes

Tell me the assay call for `Cc1ccccc1N=Nc1c(C)nn(C(N)=S)c1-c1ccccc1` please.
Yes

Which outcome was entered for the compound `CC(C)CCOC(=O)c1ccc(O)cc1.[Zn+2]` in this test?
Yes

Which outcome did this test record for the compound `CC(=O)Oc1ccc(-c2ccc(Br)cc2)cc1` ?
Yes

For this compound, state the assay outcome: C1CCC(C2=NC3CCCCC3SC2)CC1 (configuration not stated)
Yes

Hi, do you know how CCOC(=O)CN1CCC(C(=O)CC2(O)C3(Cl)C4(Cl)C5(Cl)C(Cl)(Cl)C6(Cl)C4(Cl)C2(Cl)C6(Cl)C53Cl)CC1 (configuration not stated) came out in this test?
Yes

Please state the recorded outcome for this compound: `Nc1ccc(S(=O)(=O)NCc2nccs2)cc1`
Yes

---

test: NCI Yeast Anticancer Drug Screen. Data for the cln2 rad14 strain (AID 165);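 also: 0% = growth equal to vehicle treated cultures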; details: S. cerevisiae cln2 rad14 strain, at 50.0 µM, hits give high values
The panel holds about 79,000 compounds, 15% with a hit somewhere; the sample as a whole holds those more often.
Below: a set of entries, each annotated with reported growth inhibition.
Number only, in %; omit the unit.

compound="N#CC1Sc2ccccc2N1C(=O)c1ccccc1 (stereo not drawn)" observed=78
compound=CCCCC(=O)OC1=C(Br)C(=O)c2ccccc2C1=O observed=-11.8
compound=CC(C)Cn1cnc2c(SCc3ccccc3[N+](=O)[O-])nc(N)nc21 observed=82.2

Could you share which growth inhibition value was measured for `Cc1ccc(Cc2n[nH]c(=O)[nH]2)cc1` ?
-2.5

// returns reported growth inhibition for input `Fc1cccc(CSc2n[nH]c(=S)c3nc[nH]c23)c1`
40.8

Please report the recorded growth inhibition for COC(=O)c1c(C)cccc1C1CN=NC12Cc1ccccc1C2=O (stereo not drawn) .
30.8

Item under review: `N#C/C(=C1C=C/C(=N/O)c2ccccc2/1)c1ccc(Cl)cc1` . Reported growth inhibition?
41.1

Consider the compound `CCOc1ccccc1NC(=O)/C(Cl)=C(\Cl)C(=O)O` and give its measured growth inhibition.
56.8

Entry under review: `CCOC(CCCl)OCC` . Reported growth inhibition?
89.2

Look up growth inhibition for this compound: CCCCCC(C1SC(=S)NC1=O)C1SC(=S)NC1=O (stereo not drawn)
83

Form field: reported growth inhibition of `CN=C(NC1CCCCC1)c1ccc(NC(=O)c2ccc(C(=O)Nc3ccc(C(=NC)NC4CCCCC4)cc3)cc2)cc1`
92

Please look up its growth inhibition: `NN(c1ccccc1)c1cccc2ccccc12`
-23.8

For `Oc1ccc(O)c2c1N=NC21c2ccccc2Oc2ccccc21` , what is its reported growth inhibition?
86.5

// returns reported growth inhibition for input COC(=O)C1(Cc2ccccc2C)Cc2ccc(C)cc2C1=O (stereo not drawn)
31.8

If you can, please state the reported growth inhibition value of CNC(=O)NC(c1cc(OC)c(OC)c(OC)c1)c1cc2c(cc1O)OCO2 (stereo not drawn) .
23.6

Could you tell me which growth inhibition is on file for `S=C(Nc1ccc2cn[nH]c2c1)Nc1ccc2cn[nH]c2c1` ?
-1.15

Look at this compound and give its reported growth inhibition. `O=C(NC1CCN(Cc2ccccc2)CC1)c1ccc(I)cc1`
77.2

Could you tell me which growth inhibition is on file for `COc1cc(C=O)c(C=O)cc1OC` ?
89.2

Tell me the measured growth inhibition of O=C1c2ccccc2CCC1C(O)(C(F)(F)F)C(F)(F)F (stereo not drawn) , please.
10.9

Could you share which growth inhibition value was measured for `CC(=O)OCCn1c2nc(=O)[nH]c(=O)c-2nc2cc(C)c(C)cc21` ?
-42.9

Could you tell me which growth inhibition is on file for `C[C@]12CC[C@H](O)C[C@@H]1CC[C@@H]1[C@@H]2CC[C@]2(C)[C@@H](c3cc(C(F)(F)F)n[nH]3)CC[C@@H]12` ?
68.9

What value of growth inhibition has been recorded for this entry: CC(O)C(NC(=O)OCc1ccccc1)C(=O)OC(c1ccccc1)c1ccccc1 (stereo not drawn)
97

For the compound O=C1C(C(O)(C(F)(F)Cl)C(F)(F)Cl)CCCC1C(O)(C(F)(F)Cl)C(F)(F)Cl (stereo not drawn) , what growth inhibition is on record?
99.3

---

test: NCI Yeast Anticancer Drug Screen. Data for the rad50 strain (AID 155);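 also: 0% = growth of vehicle-only cultures of the same strain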; conditions: S. cerevisiae rad50 strain growth inhibition; at 5.0 µM (retest, dose inferred, filed as 0.5); hits give high values
The panel holds about 79,000 compounds, 15% with a hit somewhere; the sample as a whole holds those more often.
Quantity measured: growth inhibition (%)
Please respond with the number in % and leave the unit unwritten.

compound=CCc1ccc(C(=O)O)cc1 scale_unit=% observed=-2
compound=ClC(Cl)(Cl)/C=C/c1cnc2ccccc2n1 scale_unit=% observed=2
compound=Nc1ccc2c(c1)S(=O)(=O)c1cc(N)ccc1-2 scale_unit=% observed=22
compound="COc1cccc2c1C(=O)c1c(O)c3c(c(O)c1C2=O)C[C@@](O)(/C(C)=N/NS(C)(=O)=O)C[C@@H]3OC1CC(N)C(O)C(C)O1 (some centres undefined)" scale_unit=% observed=42
compound=CC(C)(C)CC(C)(C)NCc1cc(Cl)cc(Cc2cc(Cl)ccc2O)c1O scale_unit=% observed=10
compound=O=C(O)CCC(O)=C1S(=O)(=O)OCCOS1(=O)=O scale_unit=% observed=-21

GET /values?readout=growth inhibition&item= CCCCCCOC(=O)C(N)Cc1ccc(OC)cc1 (centres undefined)
5

---

assay: NCI Yeast Anticancer Drug Screen. Data for the cln2 rad14 strain (AID 165);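 also: 0% = growth equal to vehicle treated cultures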; settings: S. cerevisiae cln2 rad14 strain, at 5.0 µM (retest, dose inferred, filed as 0.5), hits give high values
The panel holds about 79,000 compounds, 15% with a hit somewhere; the sample as a whole holds those more often.
Quantity measured: growth inhibition (%)
The figure you give is taken to be in %; do not add the unit.

Observe how each entry below is paired with its result.
molecule=CCOC(=O)c1cn(CC)c2cc(-n3cccc3)ccc2c1=O quantity_measured="growth inhibition" observed=-2
molecule=Oc1ccc(C(=C(Br)c2ccccc2)c2ccc(O)cc2)cc1 quantity_measured="growth inhibition" observed=99
molecule="CCC[CH2][Sn]([CH2]CCC)([O]C(=O)C(OC)c1ccccc1)[O]C(=O)C(OC)c1ccccc1 (stereo unspecified)" quantity_measured="growth inhibition" observed=36
molecule="O=C(O)/C=C/C(=O)Nc1cc2c(cc1Br)-c1ccccc1C2Br (stereo unspecified)" quantity_measured="growth inhibition" observed=-1
molecule=CCC1=C(C)/C(=C/c2[nH]c(C(Br)Br)c(CC)c2C)N=C1C(Br)Br quantity_measured="growth inhibition" observed=-6
molecule=O=S(O)CCCCCSSc1ccc(Cl)cc1 quantity_measured="growth inhibition" observed=-2
molecule="CCCCCCCCN(CCCCCCCC)CC(O)c1cc(OCC)nc2ccccc12 (stereo unspecified)" quantity_measured="growth inhibition" observed=3
molecule=CCOC(=O)c1csc(=S)[nH]1 quantity_measured="growth inhibition" observed=5
molecule=CSC1=NSC(c2ccccc2)=C(c2ccccc2)S1 quantity_measured="growth inhibition" observed=33
molecule=Clc1ccc(/C=N/Nc2c3ccccc3nc3ccccc23)c(Cl)c1 quantity_measured="growth inhibition" observed=-47

# input for lookup
Fill blank: measured growth inhibition of the molecule `O=C(O)c1c([N+](=O)[O-])cc(C(F)(F)F)cc1[N+](=O)[O-]` is ____.
9
